test protocol: qHTS Assay for Identification of Small Molecule Agonists for Hypoxia Response Element Signaling Pathway (AID 914); on activation: % of control where 0% means no effect
test settings: ME-180 HRE-bla reporter, beta-lactamase ratio, CoCl2, 17 h; hits give high values
Records with an inconclusive call do not appear.
property name: activation (%)
Give the value in % but do not write % after it.

Enquiry: Please report the measured activation for `Cc1cccc(-n2ncc3c(NCc4ccco4)ncnc32)c1`
Return: 8.46

Enquiry: Give the measured activation for `C[N+](C)(C)[C@@H](C1=CCCC1=O)c1ccccc1`
Return: -1.62

Enquiry: Supply reported activation belonging to this compound: `O=C(O)CCCC(=O)Nc1ccn(-c2ccccc2)n1`
Return: 6.56

Enquiry: Identify measured activation corresponding to `Cn1cc(Br)cc2nc(C(F)(F)F)nc1-2`
Return: 2.94

Enquiry: Look up and state reported activation for OC1(C2(O)CC(c3ccccc3)ON2)CCCCC1 (stereo not given)
Return: -4.48

Enquiry: Give activation for the following compound: `CCOc1ccc(NC(=O)c2nn(C)cc2Br)cc1`
Return: 5.55

Enquiry: Find the measured activation of `CC(C)COC(=O)CCNc1n[nH]c(=O)[nH]c1=O` and report it.
Return: -10.2

Enquiry: Specify measured activation for `Cc1cc(C)c(-n2c(O)c(C=NCCN3CCOCC3)c(=O)[nH]c2=O)c(C)c1` .
Return: -6.53

Enquiry: Return activation (reported value) for this compound: `COc1ccc(-n2c(SCC(N)=O)nc3sc4c(c3c2=O)CCN(C)C4)cc1`
Return: -0.0215

---

test protocol: Stat Signaling Pathway (AID 446);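 further: ME-180 cervical cancer cells given 40 pM IL-6 alongside compound; SIE-controlled beta-lactamase reporter measured as 460/530 nm FRET emission ratio; on the % scale 0 is the no-effect control and ±100 the full control effect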
test settings: ME-180 SIE beta-lactamase reporter, IL-6 stimulated, 5 h; at 17.2 µM (top of the series) unless noted
Inconclusive results are not listed.
activity, negative = inhibition overview
Supply the numeric figure in %, leaving out any unit text.

Study these solved cases before continuing.
O=C(NC1(C(F)(F)F)C(=O)Nc2c1c(=O)[nH]c(=O)n2Cc1ccco1)C1CCCCC1 (stereo unspecified); -2.02
CCCSc1nc(N2CCCC2)c2c(c1C#N)CC(C)(C)OC2; 6.07
CSc1nc(NC(C)=O)nc(C)c1Cl; 3.48
O=C(O)C1CC(=O)n2c(nc3ccccc32)S1 (stereo unspecified); 6.25
CC(NC(=O)CSc1nc2c(cc1C#N)CN(C)CC2)c1ccccc1 (stereo unspecified); -4.3

Enquiry: Give the value of activity, negative = inhibition reported for the following: CCN(CC)C(=O)CSC1=C(C#N)C(c2ccco2)C(C(=O)OCCOC)=C(C)N1 (stereo unspecified)
Return: 2.75

---

test protocol: AP1 Signaling Pathway (AID 357);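 further: ME-180 reporter cells stimulated with EGF at its EC50 level; on the % scale 0 is the no-effect control and ±100 the full control effect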
test settings: ME-180 AP-1-bla reporter, EGF-induced, beta-lactamase ratio, 5 h; at 17.2 µM (top of the series) unless noted
Inconclusive results are not listed.
property name: activity change, negative = inhibition (%)
Expressed in %, but write only the number.

Recorded activity change, negative = inhibition, per entry:
CN(C)CCCNCCCCNC(=O)/C=N/O; 5.81
O=S(=O)(c1ccccc1)N1CCC(N2CCN(c3ccccc3)CC2)CC1; -9.33
CC1(C)Cc2c(C#N)c(SCCOc3ccccc3)nc(N3CCOCC3)c2CO1; -5.93
CC1(c2ccco2)NC(=O)NC1=O (configuration not stated); 5.26

Enquiry: Return activity change, negative = inhibition for the following molecule: `c1ccc(-c2nnc(OCCN3CCOCC3)c3ccccc23)cc1`
Return: -8.82

Enquiry: Identify activity change, negative = inhibition associated with the molecule `c1csc(-c2nn3c(C4CCCCC4)nnc3s2)c1`
Return: -6.89

Enquiry: Using known records, supply activity change, negative = inhibition for `CN(CCNC(=O)c1ccc(/C=N/O)nc1)Cc1ccccc1`
Return: 0.297

Enquiry: Quote activity change, negative = inhibition reported for `Nc1nnc(CSCc2ccc(F)cc2)s1` please.
Return: 8.86

Enquiry: Determine from records and report activity change, negative = inhibition for COc1ccccc1C1/C(=C(/O)c2ccc(C)cc2)C(=O)C(=O)N1Cc1ccco1 (configuration not stated)
Return: 12.8

---

system name: Mitogen-activated protein kinase 10 (Mus musculus) (UniProt Q61831)
test protocol: JNK3 AlphaScreen Assay (AID 530);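 further: kinase came from lysate of stimulated human HepG2 cells; signal reports phosphorylation of biotinylated GST-cJun 1-79 at Ser73 with 10 µM ATP; on the % scale 0 is the no-effect control and ±100 the full control effect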
test settings: JNK3 lysate, c-Jun phosphorylation; series mostly up to 57.1 µM
Records with an inconclusive call do not appear. The source made the active and inactive calls. The call rests on the fitted dose curve; in most records, active means well fitted curve in either direction with a large enough effect (not every such curve was filed as active); inconclusive means small, poorly fitted or top-dose-only effect, or another doubt; inactive means flat fitted curve, though single readings scatter.
property name: activity change, negative = inhibition

CC(C)C[C@@H](CC(=O)N[C@@H](CCC(=O)O)CC(=O)O)NC(=O)[C@@H]1CCCC[C@H]1NC(=O)C[C@@H](NC(=O)C[C@H](CO)NC(=O)[C@@H]1CNCC[C@H]1N)C(C)C; inactive
C[N+](C)(C)CCN(Cc1cccs1)c1ccccn1; 0.454% [at 11.4 µM] (inactive)
C[C@@H](C(=O)Nc1ccc2ccccc2c1)[C@H]1C[C@]1(C)[C@H](NC(=O)OCc1ccccc1)c1ccccc1; inactive
COc1cc(/C=C\C(=O)N2CCC=CC2=O)cc(OC)c1OC; inactive

---

test protocol: S16 Schwann cell PMP22 intronic element firefly luciferase assay (AID 624032); further: nearly all actives have a fitted effect of over 30% in size
test settings: S16 rat Schwann cells, PMP22 element FLuc, 24 h; series mostly up to 57.5 µM
Inconclusive results are not listed. Calls of active or inactive are those of the source. Calls follow the shape of the dose curve; as a rule, active = well fitted inhibition curve with a large enough effect; inconclusive = small, poorly fitted or top-dose-only effect; inactive = no such curve, though single readings can be large or run the other way.
Output constraint: value belongs to class 1 = active, class 0 = inactive

CO/N=C(/C(=O)N[C@@H]1C(=O)N2C(C(=O)O)=C(CSC(=O)c3ccco3)CSC12)c1csc(N)n1 (some centres not stated); class 0
CC(C)C[C@@H](NC(=O)[C@@H](Cc1ccccc1)NC(=O)c1cnccn1)B(O)O; class 1
CCN(CC)CC(=O)Nc1c(C)cc(C)cc1C; class 0
CC[C@@]1(O)CC2CN(CCc3c([nH]c4ccccc34)[C@](C(=O)OC)(c3cc4c(cc3OC)N(C)C3[C@@](O)(C(=O)OC)C(OC(C)=O)[C@]5(CC)C=CCN6CC[C@@]43C65)C2)C1 (some centres not stated); class 1
C=CC1CN2CCC1CC2[C@@H](O)c1ccnc2ccc(OC)cc12 (some centres not stated); class 1
CC12C=CC(=O)C=C1[C@@H](F)CC1C2C(O)CC2(C)C1CC[C@]2(O)C(=O)CO (some centres not stated); class 0

Enquiry: Query: recorded result category for COc1cc2c(cc1O)CCN[C@@]21CS[C@H]2c3c(OC(C)=O)c(C)c4c(c3C(COC1=O)N1C2C2c3c(cc(C)c(OC)c3O)CC([C@@H]1O)N2C)OCO4 (some centres not stated) in this test
Return: class 0

Enquiry: How did this test come out for CC(O)C(N)C(=O)O (configuration not stated) ?
Return: class 0

---

Some molecules, each annotated with its measured Potency.
test protocol: qHTS Assay for Identification of Small Molecule Agonists for Hypoxia Response Element Signaling Pathway (AID 914); further: potency means the concentration at half of the fitted maximal effect; on activation: % of control where 0% means no effect
test settings: ME-180 (cervical carcinoma) HRE-bla reporter, beta-lactamase ratio, CoCl2, 17 h
Results filed as inconclusive are left out. Activity calls are given as the source filed them. The call rests on the fitted dose curve; in most records, active means well fitted activation curve with a large enough effect in the signal ratio, with a control signal flat (not every such curve was filed as active); inconclusive means small, poorly fitted or top-dose-only effect, or effect the other way, or a change in a side signal; inactive means flat fitted curve, though single readings scatter; the % refers to the signal ratio.

C=CCn1c(N)c(C(=O)OC(C)(C)C)c2nc3ccccc3nc21; 10 µM (active)
COc1ccc(C2=CC(c3ccc(C)cc3)n3nnnc3N2)cc1 (stereo not given); 10 µM (active)
CCCCn1cnc2c(c1=O)c1nc3ccccc3nc1n2Cc1ccc2c(c1)OCO2; 12.6 µM (active)

Enquiry: Give me measured Potency, please, for this molecule: `COc1ccc(-n2c(=O)c(CCc3ccccc3)nc3cnc(N4CCNCC4)nc32)cc1`
Return: 3.16 µM (active)

Enquiry: Let me know recorded Potency for `CC1(C)Cc2c(C#N)c(NCc3ccco3)nc(-c3ccco3)c2CO1` , thanks.
Return: 2 µM (active)

---

system name: Retinoic acid receptor RXR-alpha (Homo sapiens) (UniProt P19793)
Sequence (P19793 whole entry, looked up): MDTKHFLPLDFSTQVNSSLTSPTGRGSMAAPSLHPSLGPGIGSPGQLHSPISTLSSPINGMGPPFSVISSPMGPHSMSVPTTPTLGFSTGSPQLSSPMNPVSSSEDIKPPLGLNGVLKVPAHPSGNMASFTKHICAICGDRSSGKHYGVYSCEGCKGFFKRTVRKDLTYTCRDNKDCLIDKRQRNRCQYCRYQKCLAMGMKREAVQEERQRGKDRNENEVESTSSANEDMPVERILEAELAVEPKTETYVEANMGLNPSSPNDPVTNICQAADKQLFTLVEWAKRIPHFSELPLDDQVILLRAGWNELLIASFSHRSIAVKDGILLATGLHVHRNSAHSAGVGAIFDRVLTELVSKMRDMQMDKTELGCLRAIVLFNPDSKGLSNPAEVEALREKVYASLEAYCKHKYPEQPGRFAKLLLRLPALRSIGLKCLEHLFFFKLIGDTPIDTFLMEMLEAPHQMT
test protocol: qHTS assay for small molecule antagonists of retinoid X receptor alpha signaling (AID 588546);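 further: cells stimulated with 9-cis-retinoic acid as agonist; on the % scale 0 is the no-effect control and ±100 the full control effect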
test settings: HEK293T RXRa-UAS-bla, beta-lactamase ratio, antagonist mode
Records with an inconclusive call do not appear.
Recorded max response, one value per entry.
A number alone suffices; assume %.

These recorded examples may help you get a feel for the data.
Cc1cccc(O)c1C; 20.3
CN(C)c1ccc(C2(c3ccc(N(C)C)cc3)OC(=O)c3cc(N(C)C)ccc32)cc1; 32.7
CC1(C)CCC(C)(C)c2cc(C(=O)Nc3ccc(C(=O)O)cc3)ccc21; -51.1
CC1CCC(C(C)C)C(O)C1 (stereo not given); 5.79

Let us examine a further case.
Enquiry: Answer with max response of `Cc1cc(Nc2ccc(O)cc2)ccc1N` measured for Retinoic acid receptor RXR-alpha (Homo sapiens) (UniProt P19793).
Return: 21.4

---

test protocol: S16 Schwann cell PMP22 intronic element beta-lactamase assay (AID 624044); further: nearly all actives have a fitted effect of over 15% in size
test settings: S16 rat Schwann cells, PMP22 element beta-lactamase FRET, 24 h
Records with an inconclusive call do not appear. Activity calls are given as the source filed them. Calls follow the shape of the full dose curve.
# valid calls are true (active), false (inactive); nothing else

Example entries and their recorded answers appear below.
OCC1OC(O)C(O)C(O)C1O (stereo not drawn); false
C=CCN1CC(C(=O)N(CCCN(C)C)C(=O)NCC)CC2c3cccc4[nH]cc(c34)CC21 (stereo not drawn); false
CCN(CC)CC(=O)Nc1c(C)cc(C)cc1C; false
COc1ccc(CC(C)NCC(O)c2ccc(O)c(NC=O)c2)cc1 (stereo not drawn); false
CN(C)CC/C=C1\c2ccccc2COc2ccc(CC(=O)O)cc21; false

Enquiry: Look up the recorded call for CO[C@H]1OC2O[C@@]3(C)CC[C@H]4[C@H](C)CC[C@@H]([C@H]1C)[C@@]24OO3 (stereo partly drawn) in this test.
Return: false

Enquiry: What did the test return for CC(=O)CC(c1ccccc1)C1C(=O)Oc2ccccc2C1=O (stereo not drawn) ?
Return: false

Enquiry: Check the results log: what was the call for CC(=O)N[C@H]1[C@H](O[C@@H]2c3ccc(c(Cl)c3)Oc3cc4cc(c3O[C@@H]3O[C@H](CO)[C@@H](O)[C@H](O)C3C)Oc3ccc(cc3Cl)C[C@H]3NC(=O)[C@@H](N)c5ccc(O)c(c5)Oc5cc(O)cc(c5)[C@H](NC3=O)C(=O)N[C@H]4C(=O)N[C@H]3C(=O)N[C@@H]2C(=O)N[C@@H](C(=O)O)c2cc(O)cc(O[C@H]4O[C@H](CO)[C@@H](O)C(O)[C@@H]4O)c2-c2cc3ccc2O)O[C@H](CO)[C@@H](O)[C@@H]1O (stereo partly drawn) ?
Return: false

Enquiry: Please state the recorded outcome for this compound: `Oc1cc2cc(CCN3CCN(c4nsc5ccccc45)CC3)c(Cl)cc2[nH]1`
Return: false

Enquiry: Identify the outcome logged in this assay for the compound shown: `COc1ccc(C(=O)/C(Br)=C/C(=O)O)cc1`
Return: false

Enquiry: I would be grateful if you could indicate the recorded call for Cc1cn([C@H]2CC(F)[C@@H](CO)O2)c(=O)[nH]c1=O (stereo partly drawn) .
Return: false

Enquiry: How was `O=C(O)Cc1sc(-c2ccc(Cl)cc2)nc1-c1ccccc1` classified in this test?
Return: false

Enquiry: Per the assay record, what outcome was assigned to CCCCCCCCCCCCCCCC(=O)OCC(COP(=O)(O)OCC[N+](C)(C)C)OC(=O)CCCCCCCCCCCCCCC (stereo not drawn) ?
Return: false

Enquiry: So what was the verdict on CO/N=C(/C(=O)N[C@@H]1C(=O)N2C(C(=O)O)=C(CSC(=O)c3ccco3)CSC12)c1csc(N)n1 (stereo partly drawn) in this test?
Return: false

Enquiry: Dear colleague, could you share the recorded outcome for CC(C)C(=O)OCC(=O)[C@@]12OC(C3CCCCC3)O[C@@H]1CC1C3CCC4=CC(=O)C=C[C@]4(C)C3[C@@H](O)C[C@@]12C (stereo partly drawn) when you have a moment?
Return: false

Enquiry: So what was the verdict on `CCOc1ccccc1O[C@@H](c1ccccc1)[C@@H]1CNCCO1` in this test?
Return: false

Enquiry: Tell me the assay call for Nc1nc(Cl)nc2c1ncn2[C@@H]1O[C@H](CO)[C@H](O)C1F (stereo partly drawn) please.
Return: true

Enquiry: Just curious, what result did C=C1CCC(O)C/C1=C/C=C1\CCC[C@]2(C)[C@@H]([C@H](C)/C=C/[C@H](C)C(C)C)CC[C@@H]12 (stereo partly drawn) get here?
Return: false
